test: BA test (oral absorption); assay type: in vivo, mouse or SD rat; settings: plasma; from AUCs of oral (1 to 30 mg/kg) and intravenous (0.5 to 10 mg/kg) administration groups
MEASURE: bioavailability

>>> df
                                smiles_code  result_value
0  C[C@@]1(c2cc(NC(=O)c3ccc(C#N)cn3)ccn2)C=CSC(N)=N1.O=C(O)C(O)C(O)C(=O)O         96.7%

###

test: Solubility test (turbidity, JP-I, JP-II); type: physicochemical; conditions: pH 1.2, simulated gastric fluid, kinetic from dmso stock; medium JP-I, 2% DMSO, turbidity after 4 hours; read-out: Solubility (3 stages) in JP-I
MEASURE: solubility at 4 h

>>> print(df.to_string())
                                   compound  result_value
0  COc1cnc(C(=O)Nc2ccnc([C@]3(C)C=CSC(N)=N3)c2)cn1 [Compound I-47]       > 40 µM
